B1: ZNF649 (parent)
chain: EHERAHRGEKPHGCSLCGKAFYKR

- Variants of: B1
- protocolDescription: protein stability index of a GFP-peptide fusion (GPS, HEK-293T) (PSI 1-6); higher = more stable;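 also: lentivirally expressed fusions sorted by FACS into six bins by GFP to DsRed ratio, PSI derived from sequencing read proportions per bin multiplied by bin number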
- measurementParameters: c terminus: a fixed tail appended
Listing of recorded protein stability index by entry.
measurementKind: protein stability index

{"columns": ["variantLabel", "result"],
 "data": [
  ["C14P", 3.12],
  ["E1T", 3.46],
  ["R7E", 1.95],
  ["P11E", 3.19],
  ["C17W", 3],
  ["A5V", 1.62],
  ["S15Q", 1.41],
  ["G8E", 2.27],
  ["L16N", 2.07],
  ["R4E", 2.14],
  ["L16V", 3.34],
  ["A20M", 2.62],
  ["E3T", 1.89],
  ["P11V", 1.79],
  ["L16C", 3.54],
  ["R4Q", 1.59],
  ["E9H", 2.13],
  ["K19T", 1.97],
  ["L16F", 1.83],
  ["E3M", 1.61],
  ["G18R", 3.06],
  ["Y22N", 2.35],
  ["K10A", 2.12],
  ["E3H", 2.72],
  ["Y22F", 2.95],
  ["P11A", 2.08],
  ["R24D", 3.35],
  ["H12G", 1.89],
  ["K10F", 2.98],
  ["G18N", 2.49],
  ["E1D", 2.2],
  ["S15P", 4.16],
  ["P11G", 1.55],
  ["H2N", 1.93],
  ["P11M", 2.31],
  ["E9W", 1.59],
  ["R24G", 3.11],
  ["L16Y", 2.14],
  ["L16M", 1.74],
  ["L16A", 3.17],
  ["E3N", 2.47],
  ["H2C", 2.01],
  ["L16T", 2.16],
  ["G18A", 1.43],
  ["E3V", 3.49],
  ["H12W", 1.64]
]}
